Experiment: Stability in sodium acetate buffer pH 6 at two temperatures, reversed-phase HPLC
Format: physicochemical
Settings: sodium acetate buffer pH 6, 6 hours, 25° C.
Could you please report measured % Purity of the Compound, 6 Hours 25° C. for the items listed next?
Answer in %, number only, no unit symbol.

[in] Provide one value: measured % Purity of the Compound, 6 Hours 25° C. of CCCCCCCCCCCCCCCCNC(=O)CN(CC(N)=O)C(=O)CCCCCNC(=O)C(Cc1c[nH]c2ccccc12)NC(=O)C(CCCNC(=N)N)NC(=O)C(CSSC)NC(=O)C(CCCNC(=N)N)NC(=O)CC1CCCN1C(=O)C(NC(=O)C(Cc1c[nH]cn1)NC(=O)C(NC(=O)CNCC(=O)O)C(C)O)C(c1ccccc1)c1ccccc1 (stereo not shown)
[out] 99.6

[in] Provide one value: measured % Purity of the Compound, 6 Hours 25° C. of CCCCCCCCCCCCCCCCNC(=O)CN(CC(N)=O)C(=O)CCCCCNC(=O)C(Cc1c[nH]c2ccccc12)NC(=O)C(CCCNC(=N)N)NC(=O)C(CS)NC(=O)C(CCCNC(=N)N)NC(=O)CC1CCCN1C(=O)C(NC(=O)C(Cc1c[nH]cn1)NC(=O)C(NC(=O)CNCC(=O)O)C(C)O)C(c1ccccc1)c1ccccc1 (stereo not shown) [Compound 1, reference compound]
[out] 58.9

[in] Provide one value: measured % Purity of the Compound, 6 Hours 25° C. of CCCCCCCCCCCCCCCCNC(=O)CN(CC(N)=O)C(=O)CCCCCNC(=O)C(Cc1c[nH]c2ccccc12)NC(=O)C(CCCNC(=N)N)NC(=O)C(CSC(C)=O)NC(=O)C(CCCNC(=N)N)NC(=O)CC1CCCN1C(=O)C(NC(=O)C(Cc1c[nH]cn1)NC(=O)C(NC(=O)CNCC(=O)O)C(C)O)C(c1ccccc1)c1ccccc1 (stereo not shown)
[out] 96.9

[in] Provide one value: measured % Purity of the Compound, 6 Hours 25° C. of CCCCCCCCCCCCCCCCNC(=O)CN(CC(N)=O)C(=O)CCCCCNC(=O)C(Cc1c[nH]c2ccccc12)NC(=O)C(CCCNC(=N)N)NC(=O)C(CSCC)NC(=O)C(CCCNC(=N)N)NC(=O)CC1CCCN1C(=O)C(NC(=O)C(Cc1c[nH]cn1)NC(=O)C(NC(=O)CNCC(=O)O)C(C)O)C(c1ccccc1)c1ccccc1 (stereo not shown)
[out] 96.8

====

Test: physchem
Assay type: physicochemical
Settings: Solubility (mg/mL) at Ambient Temperature, Water
Could you please report measured solubility for the items listed next?

[in] Provide one value: measured solubility of CCCCCCCCCCCCCCCCNC(=O)CN(CC(N)=O)C(=O)CCCCCNC(=O)C(Cc1c[nH]c2ccccc12)NC(=O)C(CCCNC(=N)N)NC(=O)C(CSSC)NC(=O)C(CCCNC(=N)N)NC(=O)C1CCCN(C(=O)C(NC(=O)C(Cc2c[nH]cn2)NC(=O)C(NC(=O)CNCC(=O)O)C(C)O)C(c2ccccc2)c2ccccc2)C1 (stereo not drawn) [Compound 5]
[out] > 100 mg/mL

[in] Provide one value: measured solubility of CCCCCCCCCCCCCCCCNC(=O)CN(CC(N)=O)C(=O)CCCCCNC(=O)[C@H](Cc1c[nH]c2ccccc12)NC(=O)[C@H](CCCNC(=N)N)NC(=O)[C@H](CSSC)NC(=O)[C@H](CCCNC(=N)N)NC(=O)C1CCN(C(=O)[C@@H](NC(=O)[C@H](Cc2c[nH]cn2)NC(=O)[C@@H](NC(=O)CNCC(=O)O)[C@@H](C)O)C(c2ccccc2)c2ccccc2)CC1 [Compound 8]
[out] 50 to 100 mg/mL

[in] Provide one value: measured solubility of CCCCCCCCCCCCCCCCNC(=O)CN(CC(N)=O)C(=O)CCCCCNC(=O)[C@H](Cc1c[nH]c2ccccc12)NC(=O)[C@H](CCCNC(=N)N)NC(=O)[C@H](CSSC)NC(=O)[C@H](CCCNC(=N)N)NC(=O)CCNC(=O)[C@@H](NC(=O)[C@H](Cc1c[nH]cn1)NC(=O)[C@@H](NC(=O)CNCC(=O)O)[C@@H](C)O)C(c1ccccc1)c1ccccc1 [Compound 10]
[out] < 25 mg/mL
